src = patent US10023570B2

- study target: N-terminal GST tagged recombinant human RET cytoplasmic domain (aa 658-end), wild type RET kinase (Homo sapiens (Human), UniProt P07949)
- Sequence (P07949 658-1114): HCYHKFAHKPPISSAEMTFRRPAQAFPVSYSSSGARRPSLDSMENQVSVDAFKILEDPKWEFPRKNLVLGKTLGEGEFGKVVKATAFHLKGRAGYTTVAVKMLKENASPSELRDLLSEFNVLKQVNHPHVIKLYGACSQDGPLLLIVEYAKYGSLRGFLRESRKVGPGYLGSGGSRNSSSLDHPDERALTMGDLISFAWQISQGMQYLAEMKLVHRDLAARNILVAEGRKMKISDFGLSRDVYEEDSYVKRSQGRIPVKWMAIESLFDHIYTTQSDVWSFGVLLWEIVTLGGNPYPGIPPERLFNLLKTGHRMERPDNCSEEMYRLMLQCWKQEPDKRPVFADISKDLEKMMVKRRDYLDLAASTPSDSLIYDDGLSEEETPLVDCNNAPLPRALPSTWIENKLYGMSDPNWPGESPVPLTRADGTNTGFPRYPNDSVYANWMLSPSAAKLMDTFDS
- measurement protocol: RET Enzyme Assay (HTRF KinEASE-TK), wild type RET
- Assay type: biochemical
- condition summary: wild type RET, 1 mM ATP
I'd appreciate it if you could supply pIC50 values for the items below.
Recall that pIC50 is obtained by taking minus log10 of the concentration measured in molar.

Quick note, pIC50 for CN(C)C(=O)NC1CCN(c2ccc(-c3cc(-c4cnn(C)c4)cn4ncc(C#N)c34)cn2)CC1 landed at 7.84

Quick note, pIC50 for COc1ccc(CN2CCN(c3ccc(-c4cc(-c5cnn(C[C@H](C)O)c5)cn5ncc(C#N)c45)cn3)CC2)cn1 landed at 7.78

Quick note, pIC50 for CC(C)NC(=O)C1(C)CCN(c2ccc(-c3cc(-c4cnn(C)c4)cn4ncc(C#N)c34)cn2)CC1 landed at 8.11

Quick note, pIC50 for COCC(C)NC(=O)C1CCN(c2ccc(-c3cc(-c4cnn(C)c4)cn4ncc(C#N)c34)cn2)CC1 (stereo not drawn) landed at 7.92

Quick note, pIC50 for Cn1cc(-c2cc(-c3ccc(N4CCN(C=O)CC4)nc3)c3c(C#N)cnn3c2)cn1 landed at 8.13

Quick note, pIC50 for CCC1(C(=O)NCC(C)(C)O)CCN(c2ccc(-c3cc(-c4cnn(C)c4)cn4ncc(C#N)c34)cn2)CC1 landed at 7.90

Quick note, pIC50 for Cn1cc(-c2cc(-c3ccc(N4CCC(C)(C(=O)NCCC(F)(F)F)CC4)nc3)c3c(C#N)cnn3c2)cn1 landed at 8.15

Quick note, pIC50 for COc1ccccc1CN1CCN(c2ccc(-c3cc(-c4cnn(C)c4)cn4ncc(C#N)c34)cn2)CC1 landed at 8.31

Quick note, pIC50 for CCN(CC)C(=O)N1CCN(c2ccc(-c3cc(-c4cnn(C)c4)cn4ncc(C#N)c34)cn2)CC1 landed at 8.44

Quick note, pIC50 for Cn1cc(-c2cc(-c3ccc(N4CCN(S(C)(=O)=O)CC4)nc3)c3c(Cl)cnn3c2)cn1 landed at 7.79

Quick note, pIC50 for C[C@H](O)CC(=O)N1CCN(c2ccc(-c3cc(-c4cnn(C)c4)cn4ncc(C#N)c34)cn2)CC1 landed at 7.90

Quick note, pIC50 for COc1ccc(CN2CCN(c3ccc(-c4cc(-c5cn[nH]c5)cn5ncc(C#N)c45)cn3)CC2)cn1 landed at 8.17

Quick note, pIC50 for Cc1nn(C(C)(C)C)cc1-c1cc(-c2ccc(N3CCN(Cc4ccccc4)CC3)nc2)c2c(C#N)cnn2c1 landed at 7.22

Quick note, pIC50 for Cn1cc(-c2cc(-c3ccc(N4CCN(S(=O)(=O)NC(C)(C)C)CC4)nc3)c3c(C#N)cnn3c2)cn1 landed at 8.08

Quick note, pIC50 for Cc1cc(-c2cc(-c3cnn(C)c3)cn3ncc(C#N)c23)cnc1N1CCN(C(=O)OC(C)(C)C)CC1 landed at 5.82
